Measured inhibition values are reported for all entries that follow.
- Target or test system: Protein kinase C eta type (Homo sapiens) (UniProt P24723);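 also: values are the mean percent inhibition of PKC-eta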
- Sequence (P24723 whole entry): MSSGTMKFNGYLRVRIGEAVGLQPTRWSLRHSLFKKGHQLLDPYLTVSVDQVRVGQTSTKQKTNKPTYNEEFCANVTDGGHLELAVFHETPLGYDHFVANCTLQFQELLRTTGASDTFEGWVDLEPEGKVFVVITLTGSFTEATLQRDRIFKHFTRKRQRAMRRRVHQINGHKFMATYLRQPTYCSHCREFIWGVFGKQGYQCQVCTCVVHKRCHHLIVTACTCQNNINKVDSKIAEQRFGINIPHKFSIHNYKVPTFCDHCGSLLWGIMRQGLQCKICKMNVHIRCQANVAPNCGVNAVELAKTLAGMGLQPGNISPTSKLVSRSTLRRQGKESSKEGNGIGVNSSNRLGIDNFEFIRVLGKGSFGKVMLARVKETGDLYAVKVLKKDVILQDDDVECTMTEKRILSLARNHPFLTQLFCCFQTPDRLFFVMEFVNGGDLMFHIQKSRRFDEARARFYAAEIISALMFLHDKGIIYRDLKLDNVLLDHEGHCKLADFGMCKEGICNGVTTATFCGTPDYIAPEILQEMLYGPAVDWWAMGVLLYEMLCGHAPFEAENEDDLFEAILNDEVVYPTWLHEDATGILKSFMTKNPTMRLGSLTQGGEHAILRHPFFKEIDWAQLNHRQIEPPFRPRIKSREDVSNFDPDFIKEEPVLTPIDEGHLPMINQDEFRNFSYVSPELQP
- Condition summary: at 0.1 µM

{"Item smiles": "COc1ccc2c(-c3ccnc(Nc4cccc(OC(F)(F)F)c4)n3)cnn2n1", "inhibition (%)": 6.47}
{"Item smiles": "COc1cc(/C=N/Nc2ncnc3[nH]ncc23)ccc1O", "inhibition (%)": 0.97}
{"Item smiles": "COc1ccc(-c2nn3ncccc3c2-c2ccnc(Nc3ccc4c(c3)OCCO4)n2)cc1", "inhibition (%)": 1.65}
{"Item smiles": "COc1cccc(-n2ncc3c(N/N=C/c4ccc(F)cc4)ncnc32)c1", "inhibition (%)": 3.28}
{"Item smiles": "COc1ccc(-c2cc3c(N)ncnc3o2)cc1", "inhibition (%)": -4.39}
{"Item smiles": "COc1cccc(-c2c[nH]c3c(N/N=C/c4ccncc4)ncnc23)c1", "inhibition (%)": 2.72}
{"Item smiles": "COc1ccc(-c2oc3ncnc(N)c3c2-c2ccc(NC(=O)Nc3cc(C(F)(F)F)ccc3F)cc2)cc1", "inhibition (%)": 6.58}
{"Item smiles": "Fc1ccc(-c2cc(-c3c[nH]nc3-c3ccccn3)ccn2)cc1", "inhibition (%)": 4.28}
{"Item smiles": "CCCN1CCC(c2ccc(Nc3nc(Nc4cc(F)ccc4C(N)=O)c4cc[nH]c4n3)c(OC)c2)CC1", "inhibition (%)": 2.99}
{"Item smiles": "CC(C)(CO)CNC(=O)c1ccc2c(c1)/C(=N/Nc1ccc(S(N)(=O)=O)cc1)C(=O)N2", "inhibition (%)": 2.86}
{"Item smiles": "CN(C)CCOc1ccc(-c2nc(-c3ccncc3)c(-c3ccc4c(c3)CC/C4=N\\O)[nH]2)cc1", "inhibition (%)": 1.48}
{"Item smiles": "O=C(O[C@H]1CN[C@H](C#Cc2cc3ncnc(Nc4ccc(Cc5ccccc5)cc4)c3s2)C1)N1CCOCC1", "inhibition (%)": 2.47}
{"Item smiles": "Nc1nc(-c2ccc(F)cc2)c(-c2ccc3ncccc3n2)s1", "inhibition (%)": 1.76}
{"Item smiles": "CS(=O)(=O)CCNCc1coc(-c2ccc3ncnc(Nc4ccc(OCc5ccccc5)cc4)c3c2)c1", "inhibition (%)": 4.58}
{"Item smiles": "COc1ccc(-c2cc(-c3c[nH]nc3-c3ccccn3)ccn2)cc1", "inhibition (%)": 4.04}
{"Item smiles": "CCn1c(-c2nonc2N)nc2cnc(Oc3cccc(NC(=O)c4ccc(N(C)C)cc4)c3)cc21", "inhibition (%)": 43.6}
{"Item smiles": "CS(=O)(=O)CCNCc1ccc(-c2ccc3ncnc(Nc4ccc(OCc5ccccc5)c(C(F)(F)F)c4)c3c2)o1", "inhibition (%)": 4.55}
{"Item smiles": "COc1ccc(CNC(=O)c2ccc(-c3cc(-c4nnc(C)o4)ccc3C)cc2)cc1", "inhibition (%)": -0.12}
{"Item smiles": "CN1CCC(n2cnc(-c3ccc(F)cc3)c2-c2ccnc(Nc3ccccc3)n2)CC1", "inhibition (%)": 2.14}
{"Item smiles": "CCN1CCC(CC(=O)Nc2n[nH]c3nnc(-c4cccc(F)c4F)cc23)CC1", "inhibition (%)": 1.63}

----------
- Target or test system: Macrophage colony-stimulating factor 1 receptor (Homo sapiens);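 also: value reported is the mean inhibition of FMS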
- Condition summary: at 0.1 µM
Measured inhibition values are reported for all entries that follow.

{"Molecule": "Cc1ccc2c(-c3ccnc(Nc4ccccc4)n3)c(-c3ccc(F)cc3)nn2n1", "inhibition (%)": 10.5}
{"Molecule": "CC1=C(C(=O)Nc2cc(Cl)c3[nH]ncc3c2)C(c2ccc(C(F)(F)F)cc2)CC(=O)N1 (stereo not given)", "inhibition (%)": 5.21}
{"Molecule": "CN1CCC(n2cnc(-c3ccc(F)cc3)c2-c2ccnc(Nc3ccccc3)n2)CC1", "inhibition (%)": -1.19}
{"Molecule": "COc1ccc(-c2cc3c(N)ncnc3o2)cc1", "inhibition (%)": 2.06}
{"Molecule": "CNC(=O)c1cccc(C#Cc2cncnc2Nc2ccc(OCc3cccc(F)c3)c(Cl)c2)c1", "inhibition (%)": 1.48}
